# test protocol: Cytotoxicity against human MT4 cells assessed as reduction in cell viability measured after 4 days by MTT assay
# Type: cell-based
# study conditions: time 4 day
So basically, if CC50 at 96 h comes in under 20 µM it's Fulfilled, and if it's 20 µM or more it's Not fulfilled.

Lookup: Say whether its CC50 at 96 h is strictly beneath 20 µM. Entry: Cc1nc2ccccc2c(-c2ccc3c4c(ccnc24)CCO3)c1[C@H](OC(C)(C)C)C(=O)O [BI-224436]
Found: Not fulfilled

Lookup: In the record for Cc1ccc(-c2c(C)c(-c3ccc4c(c3)CCCO4)c(C(OC(C)(C)C)C(=O)O)c(C)c2NS(C)(=O)=O)cc1C (stereo not drawn) , is CC50 at 96 h less than 20 µM?
Found: Not fulfilled

Lookup: Is 20 µM strictly greater than the compound's reported CC50 at 96 h? compound: Cc1ccc(-c2c(C)c(-c3ccc(C)c(C)c3)c(C(OC(C)(C)C)C(=O)O)c(C)c2NS(C)(=O)=O)cc1C (stereo not drawn)
Found: Fulfilled

Lookup: Lab note: confirm whether the reported CC50 at 96 h for this compound is below 20 µM, equality not counting. compound: Cc1ccc(-c2c(C)c(-c3ccc4c(c3)NCCO4)c(C(OC(C)(C)C)C(=O)O)c(C)c2NS(C)(=O)=O)cc1C (stereo not drawn)
Found: Not fulfilled

Lookup: Please indicate whether the reported CC50 at 96 h of CCC(=O)Nc1c(C)c(C(OC(C)(C)C)C(=O)O)c(-c2ccc(C)c(C)c2)c(C)c1-c1ccc(C)c(C)c1 (stereo not drawn) is strictly below 20 µM.
Found: Fulfilled

Lookup: Quick check: CC50 at 96 h of CC(=O)Nc1c(C)c(C(OC(C)(C)C)C(=O)O)c(-c2ccc(C)c(C)c2)c(C)c1-c1ccc(C)c(C)c1 (stereo not drawn) under 20 µM?
Found: Fulfilled

Lookup: Determine whether this compound shows CC50 at 96 h lower than 20 µM (ties excluded): Cc1ccc(-c2c(C)c(-c3ccc(C)c(C)c3)c(C(OC(C)(C)C)C(=O)O)c(C)c2N)cc1C (stereo not drawn)
Found: Fulfilled

Lookup: Hello, I'm reviewing records and need to know if CC50 at 96 h of Cc1ccc(-c2c(C)c(-c3ccc(Cl)c(F)c3)c(C(OC(C)(C)C)C(=O)O)c(C)c2NS(C)(=O)=O)cc1C (stereo not drawn) is below 20 µM. Could you check?
Found: Not fulfilled
